- testedSystem: T1, helical cargo-binding domain (HCBD) of mouse myosin VI (residues 1052-1096), GST removed
- T1 chain: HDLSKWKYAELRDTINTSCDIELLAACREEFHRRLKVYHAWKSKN
- testDetails: sedimentation velocity analytical ultracentrifugation (AUC)
- testSettings: chain shown with the change; 150 μM; parent: est. 3.8; read off a plot
propertyName: other: s20,ww-value of the complex (S)

Completed entries (count: 3):
- mouse GIPC1 GH2 domain (residues 258-333), Q9Z0G0 Y275A; M276E (protein) SAFEEKAIEKVDDLLESAEGIRDTELAATMVELGKDKRNPDELAEALDERLGDFAFPDEFVFDVWGAIGDAKVGRY: 1.3
- mouse GIPC1 GH2 domain (residues 258-333), Q9Z0G0 F319S (protein) SAFEEKAIEKVDDLLESYMGIRDTELAATMVELGKDKRNPDELAEALDERLGDFAFPDEFVSDVWGAIGDAKVGRY: 2.4
- mouse GIPC1 GH2 domain (residues 258-333), Q9Z0G0 M276E; G323Q (protein) SAFEEKAIEKVDDLLESYEGIRDTELAATMVELGKDKRNPDELAEALDERLGDFAFPDEFVFDVWQAIGDAKVGRY: 1.5

I: mouse GIPC1 GH2 domain (residues 258-333), Q9Z0G0 M276E; F319S (protein) SAFEEKAIEKVDDLLESYEGIRDTELAATMVELGKDKRNPDELAEALDERLGDFAFPDEFVSDVWGAIGDAKVGRY
II: mouse GIPC1 GH2 domain (residues 258-333), Q9Z0G0 Y275A (protein) SAFEEKAIEKVDDLLESAMGIRDTELAATMVELGKDKRNPDELAEALDERLGDFAFPDEFVFDVWGAIGDAKVGRY
[Q] Kindly compare I with II and tell me which has the lower other: s20,ww-value of the complex figure. Field: selected label. Fill in the label of the entry you choose.
[A] I
(I: 1.6 S, II: 3 S)
